System: HL-60
assay-protocol: NCI tumour cell line growth inhibition, 48 h
Calls of active or inactive are those of the source. Rule as the data show it: active = GI50 up to about 1.1 µM and inactive = higher.
Labels: active, inactive

# molecule, label-class
measured = [
    ("Cc1cc(S(=O)(=O)N/C(=C(\\C#N)C(=O)c2ccc(Cl)cc2)[n+]2ccc(N(C)C)cc2)c([S-])cc1Cl", "inactive"),
    ("COc1ccc(C2CCc3nc4nc(N)nc(N)c4cc3C2)cc1 (centres undefined)", "inactive"),
    ("O=CC1C(Cl)=Nc2nc3ccccc3n2C1c1ccccc1 (centres undefined)", "inactive"),
    ("O=c1[nH]c2nc3ccccc3c(=O)n2/c1=C/c1cccs1", "inactive"),
    ("COC(=O)C(=C/c1ccc(OC)cc1)/C(C(=O)O)=C(/C)c1ccccc1", "inactive"),
    ("CCOc1cc[n+]([C-](C#N)C#N)cc1", "inactive"),
    ("CCOC(=O)CCC(C(=O)OCC)n1nnc2ccc(Nc3c(C)[n+]([O-])c4cc(Cl)ccc4[n+]3[O-])cc21 (centres undefined)", "inactive"),
    ("Cc1cc2c(c(C)c1O)C(C)(C)CN2C(=O)C(C)(C)C", "inactive"),
    ("Cc1ccc(N(C(=O)CC(=O)N2N=C(c3ccccc3)C(/N=N/c3ccc([N+](=O)[O-])cc3)C2=O)C(=O)c2ccc(Cl)cc2)cc1 (centres undefined)", "inactive"),
    ("CNS(=O)(=O)NN(C)S(=O)(=O)c1ccc(OC)cc1", "inactive"),
    ("COc1ccc2nc3cc([N+](=O)[O-])ccc3c(NNc3ccc([N+](=O)[O-])cc3)c2c1", "inactive"),
    ("Cc1cc(O)c(O)c(Oc2cc(C)cc(O)c2O)c1", "inactive"),
    ("CC(C)(C)OC(=O)NC(CO)c1cccc(OCc2ccccc2)c1 (centres undefined)", "inactive"),
    ("Cc1c(Cl)c(=O)oc2cc(OCC(O)COC(C)C)ccc12 (centres undefined)", "inactive"),
    ("Cc1ncc([N+](=O)[O-])n1CCNCCCn1ccnc1[N+](=O)[O-]", "inactive"),
    ("COC(=O)c1cccc2cccc(C(=O)Nc3ccc(Cl)cc3)c12", "active"),
    ("Cc1ccc2n(c1)cc(-c1ccc(/C=N/NC(=N)N/N=C/c3ccc(-c4cn5cc(C)ccc5[n+]4C)cc3)cc1)[n+]2C", "inactive"),
    ("CC(C)(C)CC(C)(C)c1cc2c(O)c(c1)Cc1cc(C(C)(C)CC(C)(C)C)cc(c1O)Cc1cc(C(C)(C)CC(C)(C)C)cc(c1O)Cc1cc(C(C)(C)CC(C)(C)C)cc(c1O)Cc1cc(C(C)(C)CC(C)(C)C)cc(c1O)Cc1cc(C(C)(C)CC(C)(C)C)cc(c1O)Cc1cc(C(C)(C)CC(C)(C)C)cc(c1O)Cc1cc(C(C)(C)CC(C)(C)C)cc(c1O)C2", "inactive"),
    ("CC1(C)O[C@@H](CO)[C@H]([C@@]23OC[C@H]4OC(C)(C)OC4[C@@H]2OC(C)(C)O3)O1 (some centres undefined)", "inactive"),
]
